Cited source for all entries: patent US20240010750A1

Consider the following binders and their measured pEC50 readings.
- studyTarget: T1, human alpha2-Antiplasmin (human, UniProt P08697 40-491)
- T1 construct: Bought (antibodies online, ABIN2544306); also called human A2AP; a2AP
- T1 sequence: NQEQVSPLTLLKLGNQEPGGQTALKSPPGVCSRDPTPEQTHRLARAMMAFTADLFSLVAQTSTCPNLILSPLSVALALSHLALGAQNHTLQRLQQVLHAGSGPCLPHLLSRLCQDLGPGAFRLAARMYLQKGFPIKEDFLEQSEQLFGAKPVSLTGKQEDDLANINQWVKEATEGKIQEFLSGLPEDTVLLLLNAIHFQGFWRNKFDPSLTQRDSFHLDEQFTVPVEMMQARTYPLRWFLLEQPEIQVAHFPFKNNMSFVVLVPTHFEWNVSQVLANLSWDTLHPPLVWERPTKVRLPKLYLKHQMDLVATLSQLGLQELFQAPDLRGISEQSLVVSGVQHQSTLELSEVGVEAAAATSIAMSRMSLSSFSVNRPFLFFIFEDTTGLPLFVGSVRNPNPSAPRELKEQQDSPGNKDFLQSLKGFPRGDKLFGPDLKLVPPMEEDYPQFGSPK
- testSummary: ELISA, coated antigen, 3rd exp.
- Experimental: A standard ELISA format was used for analyzing the binding affinity of Fabs of this invention to human and rabbit alpha-2-Antiplasmin, respectively. Antigens were coated to black 384 well Maxisorp microtiter plates (Nunc; catalogue number 460518), diluted to a concentration of 1 μg/ml in 1× Coating Buffer (Candor Bioscience; catalogue number 121125). […] For measurement, the Infinite f500 reader (Tecan) was used. Measurement mode: Fluorescence; Top reading; Ex 535 nm; Em 590 nm. […]
// pEC50: -log10(molar conc.)

Consider the following illustrative entries.
Query TPP-14318 hIgG1 (antibody, V domains shown) VH: EVQLLESGGGLVQPGGSLRLSCAASGFTFDDYAMSWVRQAPGKGLEWVSAIGTGGGTYYADSVKGRFTISRDNSKNTLYLQMNSLRAEDTAVYYCAREYYDSSGYYHLEYWGQGTLVTVSS VL: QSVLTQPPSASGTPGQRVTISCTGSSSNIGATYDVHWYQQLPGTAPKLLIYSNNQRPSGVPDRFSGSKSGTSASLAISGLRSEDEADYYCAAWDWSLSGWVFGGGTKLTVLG yields pEC50 of 7.21

Query TPP-14305 hIgG1 (antibody, V domains shown) VH: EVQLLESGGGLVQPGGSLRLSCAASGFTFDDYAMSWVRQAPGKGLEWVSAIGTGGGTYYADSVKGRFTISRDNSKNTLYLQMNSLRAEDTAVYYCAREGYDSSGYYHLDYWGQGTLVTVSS VL: QSVLTQPPSASGTPGQRVTISCTGSSSNIGATYDVHWYQQLPGTAPKLLIYSNNQRPSGVPDRFSGSKSGTSASLAISGLRSEDEADYYCWAWDDSLSGWVFGGGTKLTVLG yields pEC50 of 7.80

Read the next record carefully.
Query TPP-14293 hIgG1 (antibody, V domains shown) VH: EVQLLESGGGLVQPGGSLRLSCAASGFTFDDYAMSWVRQAPGKGLEWVSAIGTGGGTYYADSVKGRFTISRDNSKNTLYLQMNSLRAEDTAVYYCDREYYDSSGYYHLDYWGQGTLVTVSS VL: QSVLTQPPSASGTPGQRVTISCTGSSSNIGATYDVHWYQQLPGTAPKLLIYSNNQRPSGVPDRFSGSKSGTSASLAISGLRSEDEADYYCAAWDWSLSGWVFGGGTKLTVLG yields pEC50 of 7.92
